// values below are reported z-score
experiment_summary: compound effects on differentiated 3T3-L1 adipocyte viability – cell-based, 3T3-L1 adipocytes, calcein-AM fluorescence, 48 h, basal, profiling panel (AID 1163); further: test concentration not given here
condition_details: 3T3-L1 adipocytes viability, higher = more signal
readout_type: z-score

INSERT INTO measurements (compound, observed_value) VALUES
  ('COc1cc(CO)cc(I)c1O[C@H]1C=C(C(=O)NCCO)C[C@@H](NC[C@@H]2CCCO2)[C@@H]1O', -0.134),
  ('CC(C)NC(=O)[C@@H]1c2ccccc2C(=O)N(C(C)C)[C@H]1c1ccc(CO)cc1', 0.0383),
  ('COc1ccccc1CN1C(=O)c2ccccc2[C@@H](C(=O)NCc2ccccc2)[C@@H]1c1ccc(CO)cc1', 0.448),
  ('Cc1ccc(C2C3C(=O)CC4C(=O)N(c5ccccc5)C(=O)C4C3CN2S(=O)(=O)c2ccc(C)cc2)cc1 (stereo not given)', -0.172),
  ('OCCCC1=CC(C2CC2)N(Cc2cccc(OC(F)(F)F)c2)CC1 (stereo not given)', 0.643),
  ('C#CCN(C/C=C/c1ccccc1)[C@H](CO)c1ccccc1', -0.27),
  ('[N-]=[N+]=Nc1ccccc1C[C@]1(C(=O)N2CCCCC2)COC(c2ccc(OCCCO)cc2)=N1', 0.761),
  ('COCC(=C=CC[C@@H](O)c1ccc(OCCO)cc1)C[C@@H](O)c1ccccn1', -0.936),
  ('O=C1NC(=O)C2C1C=CC(C(O)c1ccc(I)cc1)N2Nc1ccc(Cl)cc1Cl (stereo not given)', 0.53),
  ('C=C(CCCC)/C(=C/C[C@@H](OC(C)=O)c1cccc(OCCO)c1)c1cnc2ccccc2c1', 1.3),
  ('COC(=O)c1c(CC[C@@H](CO)NC(=O)N[C@@H](Cc2ccccc2)Cn2cc(-c3ccccn3)nn2)oc(C(=O)N2CCOCC2)c1C(=O)OC', 0.17),
  ('CC(C)OC(=O)C=C1C[C@@H](c2cccc(Cl)c2)O[C@@H](c2cccc(Cl)c2)O1', -0.0201),
  ('O=C1C2C=CC(C(O)c3cc(C(F)(F)F)cc(C(F)(F)F)c3)N(Nc3ccccc3)C2C(=O)N1c1ccccc1 (stereo not given)', -1.48),
  ('O=C(O)[C@H](Cc1ccccc1)n1cc(-c2ccccc2)nn1', -0.853),
  ('CN1C(=O)C2C=CC(C(O)c3c(F)cccc3Cl)N(NC(=O)OC(C)(C)C)C2C1=O (stereo not given)', -0.204),
  ('[N-]=[N+]=NCc1ccccc1C[C@@]1(C(=O)NCC(O)CO)N=C(c2ccc(OCCCO)cc2)O[C@@H]1c1ccccc1 (stereo not given in full)', 0.195),
  ('CN1C(=O)C2C=CC(C(O)c3ccccc3)N(N3CCCCC3)C2C1=O (stereo not given)', -0.898),
  ('C=CC[C@]1(C(N)=O)COC(c2ccc(OCCCO)cc2)=N1', -0.793),
  ('CO[C@H]1O[C@H](CO)[C@@H](OC(=O)Nc2cccc(F)c2)[C@H](OC(=O)Nc2ccccc2)[C@H]1OC(=O)Nc1ccccc1', 1.33),
  ('C=C(CCCC)/C(=C/C[C@@H](OC(C)=O)c1ccccc1OCCO)c1cc(C(=O)OC)ccc1OC', 0.109),
  ('[N-]=[N+]=NCc1ccccc1[C@@H]1OC(c2ccc(OCCCO)cc2)=N[C@]1(CCS(=O)(=O)c1ccccc1)C(=O)N1CCCCC1', -0.418),
  ('NC(=O)[C@@H]1[C@H]2C(=O)O[C@H](c3ccccc3)[C@H](c3ccccc3)N2[C@H](c2ccc(OCCO)cc2)[C@@]12C(=O)Nc1ccc(C#CC3=CCCCC3)cc12', 1.06),
  ('O=C1O[C@@H](c2ccccc2)[C@@H](c2ccccc2)N2[C@@H](c3ccccc3OCCO)[C@]3(C(=O)Nc4ccc(C#CC5(O)CCCCCC5)cc43)[C@@H](C(=O)N3CCN(c4ncccn4)CC3)[C@H]12', 1.46),
  ('COCCOC(=O)N1C(=O)[C@@]2(c3cc(C#CC4(O)CCCCCC4)ccc31)[C@H](C(=O)Nc1nc3ccccc3s1)[C@H]1C(=O)O[C@H](c3ccccc3)[C@H](c3ccccc3)N1[C@@H]2c1ccc(OCCO)cc1', 1.47),
  ('CCOC(=O)C1=C[C@@H](C(C)C)N(S(=O)(=O)c2ccc(C)cc2)[C@H]1c1ccccc1F', 0.0139),
  ('COCCOC(=O)N1C(=O)[C@@]2(c3cc(C#CCCO)ccc31)[C@H](c1ccc(OCCO)cc1)N1[C@H](c3ccccc3)[C@H](c3ccccc3)OC(=O)[C@H]1[C@@H]2C(N)=O', 0.435),
  ('CC(C)C(=C=CC[C@H](O)c1ccc(CO)o1)CCO', -0.33),
  ('CO[C@H]1O[C@H](CO)[C@@H](OC(=O)Nc2ccc(Oc3ccccc3)cc2)[C@H](OC(=O)Nc2ccc3c(c2)OCO3)[C@@H]1OC(=O)Nc1ccc2c(c1)OCO2', -0.132),
  ('COC(=O)C(CC#Cc1ccc2c(c1)[C@]1(C(=O)N2)[C@H](c2ccccc2OCCO)N2[C@H](c3ccccc3)[C@H](c3ccccc3)OC(=O)[C@H]2[C@@H]1C(N)=O)C(=O)OC', 0.395),
  ('COc1ccc([Si](C)(C)[C@@H]2[C@@H](CCn3cc(CCO)nn3)O[C@]3(C(=O)N(Cc4cccc(N5C(=O)c6cccc7cccc5c67)c4)c4ccccc43)[C@H]2C)cc1', 1.32);
